runDescription: Inhibition of HIV1 HXB2 protease […], L90M mutant at 100 uM
Set-up: species or system Human immunodeficiency virus 1
Non-standard residues stand in square brackets, D forms with d. Residues, ends and D or L forms follow the SMILES beside them. Groups on a side chain read outwards from the residue. ξ: configuration not given here. Phe(4-Cl) = N[C@@H](Cc1ccc(Cl)cc1)C(=O)O; 2Nal = N[C@@H](Cc1ccc2ccccc2c1)C(=O)O; hArg = N=C(N)NCCCC[C@H](N)C(=O)O; hPhe = N[C@@H](CCc1ccccc1)C(=O)O; Cha = N[C@@H](CC1CCCCC1)C(=O)O; Nle = CCCC[C@H](N)C(=O)O; Dab = NCC[C@H](N)C(=O)O; Nva = CCC[C@H](N)C(=O)O; Dap = NC[C@H](N)C(=O)O; ξDab = NCCC(N)C(=O)O
measuredParameter: Ki

Study these solved cases before continuing.
compound: NC(CCNC(=O)[C@H](CC1CCCCC1)NC(=O)[C@@H](N)Cc1ccc(Cl)cc1)C(=O)N[C@@H](CCC(=O)O)C(=O)N[C@@H](Cc1ccccc1)C(=O)N[C@@H](CC1CCCCC1)C(=O)O (stereo not given in full) (H-[ξDab]([Cha-Phe(4-Cl)])EF[Cha]-OH)
reportedValue: Not Active
//
compound: CC(C)C[C@H](NC(=O)[C@H](Cc1ccccc1)NC(=O)[C@H](CCCCNC(=N)N)NC(=O)[C@@H](N)CNC(=O)[C@H](CC1CCCCC1)NC(=O)[C@@H](N)CCc1ccccc1)C(=O)O (H-[Dap]([Cha-hPhe])[hArg]FL-OH)
reportedValue: Not Active
//
compound: CC(=O)N[C@@H](CO)C(=O)N1CCC[C@H]1C(=O)N[C@@H](C)C(=O)N[C@H](C(=O)N[C@@H](CCC(=O)O)C(=O)N[C@@H](C)C(=O)O)[C@@H](C)O (Ac-SPATEA-OH)
reportedValue: Not Active
//
compound: CC(=O)N1CCC[C@H]1C(=O)N[C@@H](Cc1ccc(O)cc1)C(=O)N[C@@H](C)C(=O)NCC(=O)N[C@@H](C)C(=O)N[C@@H](CCC(N)=O)C(=O)O (Ac-PYAGAQ-OH)
reportedValue: Not Active

# evaluate next
Input: Reported Ki, compound CCCC[C@H](NC(=O)[C@@H](N)Cc1ccc2ccccc2c1)C(=O)NCC[C@H](N)C(=O)N[C@@H](CCC(=O)O)C(=O)N[C@@H](CCc1ccccc1)C(=O)N[C@@H](CCC)C(=O)O (H-[Dab]([Nle-2Nal])E[hPhe][Nva]-OH) : ____
Output: Not Active

---

runDescription: Inhibition of HIV1 HXB2 protease […], L90M mutant
Set-up: species or system Human immunodeficiency virus 1
Non-standard residues stand in square brackets, D forms with d. Residues, ends and D or L forms follow the SMILES beside them. Groups on a side chain read outwards from the residue. ξ: configuration not given here. *: point of attachment. Phe(4-Br) = N[C@@H](Cc1ccc(Br)cc1)C(=O)O; Phe(4-Cl) = N[C@@H](Cc1ccc(Cl)cc1)C(=O)O; Phe(4-NH2) = Nc1ccc(C[C@H](N)C(=O)O)cc1; 2Nal = N[C@@H](Cc1ccc2ccccc2c1)C(=O)O; hArg = N=C(N)NCCCC[C@H](N)C(=O)O; hPhe = N[C@@H](CCc1ccccc1)C(=O)O; Cha = N[C@@H](CC1CCCCC1)C(=O)O; Phg = N[C@H](C(=O)O)c1ccccc1; Nle = CCCC[C@H](N)C(=O)O; Nva = CCC[C@H](N)C(=O)O; Dap = NC[C@H](N)C(=O)O; ξDap = NCC(N)C(=O)O; Bn = c1ccc(C*)cc1
Threshold check on Ki: strictly below 20 µM is t; on or above 20 µM is f.

Input: Dear colleague, could you confirm whether Ki of CC(C)C[C@H](NC(=O)[C@H](Cc1ccc(Br)cc1)NC(=O)[C@H](CCC(=O)O)NC(=O)C(N)CNC(=O)[C@H](CC1CCCCC1)NC(=O)[C@@H](N)Cc1ccc(Cl)cc1)C(=O)O (stereo partly drawn) (H-[ξDap]([Cha-Phe(4-Cl)])E[Phe(4-Br)]L-OH) falls below 20 µM? Thanks.
Output: f

Input: Hello, I'm reviewing records and need to know if Ki of CCCC[C@H](NC(=O)[C@H](Cc1ccc(OCc2ccccc2)cc1)NC(=O)[C@H](Cc1ccc(N)cc1)NC(=O)[C@H](CCCCN)NC(=O)[C@H](CC1CCCCC1)NC(=O)[C@@H](N)Cc1ccc2ccccc2c1)C(=O)O (H-[2Nal][Cha]K[Phe(4-NH2)]Y(Bn)[Nle]-OH) is below 20 µM. Could you check?
Output: f

Input: State whether 20 µM exceeds Ki recorded for CCC[C@H](NC(=O)[C@H](Cc1ccc(O)cc1)NC(=O)[C@H](CCCCNC(=N)N)NC(=O)[C@H](CCSC)NC(=O)[C@@H](NC(=O)[C@@H](N)Cc1ccc2ccccc2c1)C(C)C)C(=O)O (H-[2Nal]VM[hArg]Y[Nva]-OH) .
Output: t

Input: Confirm or reject: Ki of CSCC[C@H](NC(=O)[C@H](CC1CCCCC1)NC(=O)[C@@H](N)Cc1ccc2ccccc2c1)C(=O)N[C@@H](CCC(=O)O)C(=O)N[C@H](C(=O)N[C@@H](CC1CCCCC1)C(=O)O)c1ccccc1 (H-[2Nal][Cha]ME[Phg][Cha]-OH) lies strictly below 20 µM
Output: t

Input: Is Ki strictly under 20 µM for the entry CCC[C@H](NC(=O)[C@H](Cc1ccc2ccccc2c1)NC(=O)[C@H](CCC(=O)O)NC(=O)C(N)CNC(=O)[C@H](CC1CCCCC1)NC(=O)[C@@H](N)Cc1ccc2ccccc2c1)C(=O)O (stereo partly specified) (H-[ξDap]([Cha-2Nal])E[2Nal][Nva]-OH) ?
Output: f

Input: Lab note: confirm whether the reported Ki for this molecule is below 20 µM, equality not counting. molecule: CCC[C@H](NC(=O)[C@H](Cc1ccc2ccccc2c1)NC(=O)[C@H](CCCCNC(=N)N)NC(=O)[C@@H](N)CNC(=O)[C@H](CCC)NC(=O)[C@@H](N)CCc1ccccc1)C(=O)O (H-[Dap]([Nva-hPhe])[hArg][2Nal][Nva]-OH)
Output: t

---

targetOrSystem: Human immunodeficiency virus type 1 protease (Human immunodeficiency virus 1, UniProt Q72874, L90M)
runDescription: Inhibition of HIV1 HXB2 protease L90M mutant
Non-standard residues stand in square brackets, D forms with d. Residues, ends and D or L forms follow the SMILES beside them. Groups on a side chain read outwards from the residue. ξ: configuration not given here. *: point of attachment. Phe(4-Br) = N[C@@H](Cc1ccc(Br)cc1)C(=O)O; Phe(4-Cl) = N[C@@H](Cc1ccc(Cl)cc1)C(=O)O; Phe(4-NH2) = Nc1ccc(C[C@H](N)C(=O)O)cc1; 2Nal = N[C@@H](Cc1ccc2ccccc2c1)C(=O)O; hArg = N=C(N)NCCCC[C@H](N)C(=O)O; hPhe = N[C@@H](CCc1ccccc1)C(=O)O; Cha = N[C@@H](CC1CCCCC1)C(=O)O; Nle = CCCC[C@H](N)C(=O)O; Dab = NCC[C@H](N)C(=O)O; Nva = CCC[C@H](N)C(=O)O; ξDab = NCCC(N)C(=O)O; ξDap = NCC(N)C(=O)O; Bn = c1ccc(C*)cc1
measuredParameter: Ki
Report the figure along with its unit, number first.

Input: Fill in: Ki of CCCC[C@H](NC(=O)[C@H](Cc1ccc(OCc2ccccc2)cc1)NC(=O)[C@H](Cc1ccc(N)cc1)NC(=O)[C@H](CCCCN)NC(=O)[C@H](CC1CCCCC1)NC(=O)[C@@H](N)Cc1ccc2ccccc2c1)C(=O)O (H-[2Nal][Cha]K[Phe(4-NH2)]Y(Bn)[Nle]-OH) is ___
Output: 9.2 µM

Input: What value of Ki has been reported for the following compound? NC(CCNC(=O)[C@H](CC1CCCCC1)NC(=O)[C@@H](N)Cc1ccc(Cl)cc1)C(=O)N[C@@H](CCC(=O)O)C(=O)N[C@@H](Cc1ccccc1)C(=O)N[C@@H](CC1CCCCC1)C(=O)O (stereo partly specified) (H-[ξDab]([Cha-Phe(4-Cl)])EF[Cha]-OH)
Output: 31.1 µM

Input: // query Ki value for entry CCCC[C@H](NC(=O)[C@@H](N)Cc1ccc2ccccc2c1)C(=O)NCC[C@H](N)C(=O)N[C@@H](CCC(=O)O)C(=O)N[C@@H](CCc1ccccc1)C(=O)N[C@@H](CCC)C(=O)O (H-[Dab]([Nle-2Nal])E[hPhe][Nva]-OH)
Output: 16.7 µM

Input: Requested field: Ki. Item: CCC[C@H](NC(=O)[C@H](Cc1ccc2ccccc2c1)NC(=O)[C@H](CCC(=O)O)NC(=O)C(N)CNC(=O)[C@H](CC1CCCCC1)NC(=O)[C@@H](N)Cc1ccc2ccccc2c1)C(=O)O (stereo partly specified) (H-[ξDap]([Cha-2Nal])E[2Nal][Nva]-OH)
Output: 9.7 µM

Input: Need Ki of CCC[C@H](NC(=O)[C@H](Cc1ccc(O)cc1)NC(=O)[C@H](CCCCNC(=N)N)NC(=O)[C@H](CCSC)NC(=O)[C@@H](NC(=O)[C@@H](N)Cc1ccc2ccccc2c1)C(C)C)C(=O)O (H-[2Nal]VM[hArg]Y[Nva]-OH) , thanks.
Output: 6.9 µM

Input: Would you mind telling me what Ki value was observed for CC(C)C[C@H](NC(=O)[C@H](Cc1ccc(Br)cc1)NC(=O)[C@H](CCC(=O)O)NC(=O)C(N)CNC(=O)[C@H](CC1CCCCC1)NC(=O)[C@@H](N)Cc1ccc(Cl)cc1)C(=O)O (stereo partly drawn) (H-[ξDap]([Cha-Phe(4-Cl)])E[Phe(4-Br)]L-OH) ?
Output: 15.7 µM

The reported measurements were obtained from ChEMBL document CHEMBL1155257.
